Just for reference, PubChem BioAssay (NCI) is where these values come from.

Listed here: items and their measured growth inhibition.
assay: NCI Yeast Anticancer Drug Screen. Data for the mec2-1 strain (AID 157); conditions: S. cerevisiae mec2-1 strain, at 5.0 µM (retest, dose inferred, filed as 0.5), active compounds read high
About 79,000 compounds went through this panel and 15% of them were active in at least one assay; those are over-represented in the sample as a whole.

# MOLECULE, growth inhibition / %
data = [
    ("O=C(OCCN1CCCCCC1)C(c1ccsc1)C1CCCCC1 (configuration not stated)", -5),
    ("Cn1c(=O)c2ccccc2c2ccccc21", -45),
    ("COc1ccc(/C=C2\\SC(=S)N(/C=C/c3nc4ccccc4[nH]c3=O)C2=O)cc1OC", -17),
    ("O=C(OCC=C1CCCC1)c1cc([N+](=O)[O-])cc([N+](=O)[O-])c1", 3),
    ("Oc1c(Br)cc(Br)cc1C1CCCCC1", 71),
    ("Fc1ccc(NC(=S)SCc2ccc3c(c2)OCO3)cc1F", -7),
    ("COc1cc(C2C3=C(COC3=O)Oc3cc4c(cc32)OCO4)ccc1O (configuration not stated)", -10),
    ("O=C(c1ccc(Cl)cc1Cl)C(Cl)Cl", 40),
    ("O=C1c2cc([N+](=O)[O-])ccc2-c2cccc(F)c21", 1),
    ("CCC(=O)OCCn1c2nc(=O)[nH]c(=O)c-2nc2cc(C)c(C)cc21", 3),
    ("O=CC=C(c1ccccc1)c1ccccc1", 51),
    ("CO[C@H]1C[C@](C)(O)Cc2cc3c(c(O)c21)C(=O)c1c(O)cc2c(c1C3=O)O[C@@H]1O[C@@]2(C)[C@H](O)[C@@H](N(C)C)[C@@H]1O", -3),
    ("Cc1nc(-c2ccccc2)c(-c2ccccc2)s1", 96),
    ("CC(C)/C(Cl)=N\\OC(=O)Nc1cccc(Cl)c1", -17),
    ("CCN(CC)CC[n+]1ccc2c(C)c3[nH]c4ccc(O)cc4c3c(C)c2c1", 9),
    ("Cc1ccc(CCC2=CCCc3c2ccc2ccccc32)cc1", 44),
    ("c1ccc(-c2ccnc3c2ccc2c(-c4ccccc4)ccnc23)cc1", -31),
    ("O=C(COC(=O)c1cc(O)c(O)c(O)c1)c1ccc(-c2ccccc2)cc1", 6),
    ("Cn1c2ccccc2c(=O)c2cc(NC(=O)CCCCC(=O)Nc3ccc4c(c3)c(=O)c3ccccc3n4C)ccc21", -7),
    ("CC(/C=C/c1ccc2c(c1)OCO2)[N+](=O)[O-] (configuration not stated)", 2),
    ("O=C(O)C1CCCCC1c1c2ccc(=O)c(O)c-2oc2c(O)c(O)ccc12 (configuration not stated)", -7),
    ("O=[N+]([O-])c1cc(CCl)ccc1CCl", -7),
]

----------
experiment: NCI Yeast Anticancer Drug Screen. Data for the rad52 strain (AID 147);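 note: 0% = growth of vehicle-treated control cultures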; settings: S. cerevisiae rad52 mutant growth inhibition; at 33.0 µM; active compounds read high
The panel holds about 79,000 compounds, 15% with a hit somewhere; the sample as a whole holds those more often.

# COMPOUND, growth inhibition (%)
measured = [
    ("Cc1ccc(Cl)c2[nH]c(-c3ccccc3)cc(=O)c12", 2),
    ("Nc1ncncc1C(C1=C(O)COC1=O)C1=C(O)COC1=O", -2),
    ("CC(C)OC(=O)Oc1ccccc1OC(=O)OC(C)C", 2),
    ("CC1OCC2OC(C)OC(C3C4=C(CC(C)(C)CC4=O)OC4=C3C(=O)CC(C)(C)C4)C2O1 (stereo unspecified)", 38),
    ("c1ccc(-c2ccnc3c2ccc2c(-c4ccccc4)ccnc23)cc1", 99),
    ("O=C(NC(Nc1ccc(F)c(Cl)c1)(C(F)(F)F)C(F)(F)F)C(C(F)(F)F)C(F)(F)F", 93),
    ("CC(=O)Nc1ccc(/C=C(\\C#N)c2ccc(C)cc2)cc1", -2),
    ("NNC(=O)CCc1ccc2ccc3ccccc3c2c1", 13),
    ("COc1ccc(OC)c2cc3ccccc3cc12", 10),
    ("CNC1C(OC2C(OC3C(O)C(O)C(N=C(N)N)C(O)C3N=C(N)N)OC(C)C2(O)CO)OC(CO)C(O)C1O (stereo unspecified)", 28),
    ("O=C(NCCCCNCCCNC(=O)c1cc(-c2ccccc2)nc2ccccc12)c1cc(-c2ccccc2)nc2ccccc12", 40),
    ("CC(C(=O)N1C(=O)N(C(=O)[C@H](C)C(O)c2ccccc2)[C@H](c2ccccc2)[C@H]1c1ccccc1)[C@@H](O)c1ccccc1 (stereo partly specified)", 37),
    ("Nc1nc(Cl)c(Cl)c(Cl)n1", 88),
    ("O=C(Cc1csc2[n+]1C(=O)/C(=C/c1ccc(Cl)cc1)S2)Nc1ccccc1", 49),
    ("O=C(O)C1OC1(c1cccc(Cl)c1)c1ccccc1Cl (stereo unspecified)", 56),
    ("CC[C@@]1(O)C(=O)OCc2c1cc1n(c2=O)Cc2cc3c(N)cccc3nc2-1", 82),
    ("NC1=NS(=O)(=O)N=C(N)C1=Cc1ccc([N+](=O)[O-])o1", 82),
    ("CC1=NN(c2cccc(Cl)c2)C(=O)C1", -16),
    ("CC(/C=C/c1ccc2c(c1)OCO2)[N+](=O)[O-] (stereo unspecified)", 99),
    ("CC(C)c1ccccc1NC(=O)/C(Cl)=C(\\Cl)C(=O)O", 5),
    ("CC(O)C(O)C(O)C(/C=N\\Nc1ccccc1)=N/Nc1ccccc1 (stereo unspecified)", 69),
]

----------
test: NCI Yeast Anticancer Drug Screen. Data for the mlh1 strain (AID 171);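 note: 0% = growth of vehicle-treated control cultures of the same strain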; conditions: S. cerevisiae mlh1 strain growth inhibition; at 3.7 µM; active compounds read high
About 79,000 compounds went through this panel and 15% of them were active in at least one assay; those are over-represented in the sample as a whole.
Let's look at some molecules and their measured growth inhibition.
MEASURED PARAMETER: growth inhibition (%)

# COMPOUND STRUCTURE STRING, REPORTED RESULT
records = [
    ("BrCc1cccc2ccc3cccc(CBr)c3c12", -3),
    ("CCCCc1cc(O)ccc1O", -1),
    ("O=C([O][Sn]([O]C(=O)c1ccccc1)([c]1ccccc1)[c]1ccccc1)c1ccccc1", 14),
    ("O=C(NNc1ccnc2cc(Cl)ccc12)/C(=C\\c1ccccc1Cl)NC(=O)c1ccccc1", 0),
    ("FC(F)(F)c1nc2nc(Cl)c(Cl)nc2n1CCCN1CCOCC1", 6),
    ("Cc1ccc(NN(NC(=O)OC(C)C)C(=O)OC(C)C)cc1", 2),
]

----------
test: NCI Yeast Anticancer Drug Screen. Data for the mec2-1 strain (AID 157); details: S. cerevisiae mec2-1 strain, at 1.2 µM
The panel holds about 79,000 compounds, 15% with a hit somewhere; the sample as a whole holds those more often. The source made the active and inactive calls. No stated cut-off is given here; in the data, active means growth inhibition above about 70%; inactive means the rest.
Labels: active, inactive

# MOLECULE, CLASS
records = [
    ("Cc1ccc(CCC2=CCCc3c2ccc2ccccc32)cc1", "inactive"),
    ("CN(C)CCOc1ccc2c(c1)C/C(=C/c1ncc([N+](=O)[O-])n1C)C2=O", "inactive"),
    ("O=C(OCC=C1CCCC1)c1cc([N+](=O)[O-])cc([N+](=O)[O-])c1", "inactive"),
    ("Cc1ccc(S(=O)(=O)NNC(=S)Nc2cccc3ccccc23)cc1", "inactive"),
    ("Cc1ccc(-c2ccc(Nc3c4ccccc4nc4ccccc34)cc2)cn1", "inactive"),
    ("Oc1c(Br)cc(Br)cc1C1CCCCC1", "inactive"),
    ("COCCOC(=O)CCn1cc(F)c(=O)[nH]c1=O", "inactive"),
    ("Cc1nc(-[n+]2nc(-c3ccncc3)nn2-c2ccccc2)sc1C", "inactive"),
    ("CN(C)C[C@H]1CC[C@@H](CN(C)C)C1=O", "inactive"),
    ("CC(=O)SCCC[Si](C)(C)CCCSC(C)=O", "inactive"),
    ("CC(O)C(O)C(O)C(/C=N\\Nc1ccccc1)=N/Nc1ccccc1 (stereo not given)", "inactive"),
    ("CCCCOC(=O)N[C@H]1CCc2cc(OC)c(OC)c(OC)c2-c2ccc(SC)c(=O)cc21", "inactive"),
    ("CC(C)(Br)C(=O)/C=C/c1ccc(Cl)c(Cl)c1", "inactive"),
    ("S=c1[nH]nc(Nc2ccc(Cl)cc2)s1", "inactive"),
    ("CSc1nc(=S)[nH]c2c1c(C)nn2-c1ccccc1", "inactive"),
    ("O=C(N=Nc1cc(Cl)ccc1Cl)NNc1cc(Cl)ccc1Cl", "inactive"),
    ("O=[N+]([O-])c1cc2no[n+]([O-])c2cc1N1CCCCC1", "inactive"),
    ("O=C1C2CC[C@@H]3C(=O)C(Cl)(Cl)[C@@H]3CCC2C1(Cl)Cl (stereo not given in full)", "inactive"),
    ("CC(=O)OCCOCNC(=S)N/N=C(\\C)c1cnccn1", "inactive"),
    ("Cc1ccc(N)c(S)c1", "inactive"),
    ("COC(=O)CCNc1c2ccccc2nc2cccc([N+](=O)[O-])c12", "active"),
    ("CCN(CC)CC(O)c1ccc2ccc3ccccc3c2c1 (stereo not given)", "inactive"),
    ("COc1ccc(/C=C/C(=O)C(C)(C)Br)cc1", "inactive"),
    ("CCC/C(Cl)=N\\OC(=O)Nc1cccc(C(F)(F)F)c1", "inactive"),
    ("CN(C)CCn1c2c3ccccc3ccc2c2oc(=O)c3ccccc3c21", "inactive"),
    ("CCN(CC)C(=S)N/N=C(/C)c1cccc(/C(C)=N\\NC(=S)N(CC)CC)n1", "inactive"),
    ("OCC1OC(OCC(O)C(O)C(O)C(/C=N/Nc2ccccc2)=N/Nc2ccccc2)C(O)C(O)C1O (stereo not given)", "inactive"),
    ("CCCCCCCCCCNC(=O)OCC", "inactive"),
    ("c1ccc2c(c1)sc1nc3ccncc3nc12", "inactive"),
    ("C[C@@H]1C[C@H]2[C@@H]3CCC4=CC(=O)C=C[C@]4(C)[C@@]3(Cl)[C@@H](Cl)C[C@]2(C)[C@@]1(O)C(=O)COP(=O)(O)O", "inactive"),
    ("COc1ccccc1N=NC(C(=O)c1ccccc1)C(=O)c1ccccc1", "inactive"),
    ("CCC(=O)c1cccc2ccccc12", "inactive"),
    ("O=C1c2ccccc2C(=O)c2c(NC3CCCCC3)ccc(Nc3ccc(S(=O)(=O)O)cc3)c21", "inactive"),
    ("CC(=O)N/N=C/C(C)(C)C(C)(C)/C=N/NC(C)=O", "inactive"),
    ("CC(=O)OC1CCC2(C)C(=CCC3C4CCC5(OC6CC(C)CN(C(C)=O)C6C5C)C(C)=C4C(=O)C32)C1 (stereo not given)", "inactive"),
]
